meta.source: ChEMBL document CHEMBL4418497

pIC50 listing for selected compounds.
# system: Serine hydroxymethyltransferase, mitochondrial (Homo sapiens, UniProt P34897)
# Sequence (P34897 whole entry): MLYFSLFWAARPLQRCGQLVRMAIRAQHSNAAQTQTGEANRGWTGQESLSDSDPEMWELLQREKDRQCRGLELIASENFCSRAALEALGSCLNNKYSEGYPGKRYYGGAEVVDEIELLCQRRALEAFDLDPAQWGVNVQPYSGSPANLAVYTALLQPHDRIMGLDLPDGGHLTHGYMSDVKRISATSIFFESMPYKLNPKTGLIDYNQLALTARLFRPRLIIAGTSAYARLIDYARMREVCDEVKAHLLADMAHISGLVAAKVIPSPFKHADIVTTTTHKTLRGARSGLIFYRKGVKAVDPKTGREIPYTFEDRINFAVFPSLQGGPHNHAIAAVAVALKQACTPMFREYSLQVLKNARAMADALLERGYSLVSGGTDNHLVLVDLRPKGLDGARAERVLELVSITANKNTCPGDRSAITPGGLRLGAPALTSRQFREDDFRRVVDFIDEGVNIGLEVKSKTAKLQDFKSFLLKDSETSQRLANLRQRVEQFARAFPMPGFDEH
# assay-overview: Inhibition of His-tagged human recombinant SHMT2 expressed in Escherichia coli BLR(DE3) assessed as reduction in NADPH level using L-serine, THF and NADP+ incubated for 5 mins by SHMT2-MTHFD coupled reaction based fluorescence assay
# experimental-context: read-out: IC50
Please keep in mind that pIC50 is minus log10 of the molar concentration; only the number is needed.

CC(C)Cn1cc(NC(=O)Nc2ccc(Cl)cn2)c2ccccc2c1=O: 5.42

Asked: // query pIC50 value for entry C=CCOc1ccc(C2CC(=O)Nc3c(-c4ccccc4OC)csc32)cc1 (stereo unspecified)
Given back: 5.99

Asked: Okay, and COc1ccc(NS(=O)(=O)c2cc(Br)cnc2N)cc1OC ?
Given back: 5.11

Asked: Okay, and O=C(CSc1nc2ncccc2o1)Nc1ccc(Br)cc1F ?
Given back: 5.74

Asked: Okay, and COc1cc(OC)c(NC(=O)NCCc2csc(C)c2C)cc1Cl ?
Given back: 5.34

Asked: Okay, and CC(=O)Oc1cc2c(C(=O)NCC3CCCO3)c(C)oc2c2ccccc12 (stereo unspecified) ?
Given back: 5.43

----------
# system: Serine hydroxymethyltransferase, mitochondrial (Homo sapiens, UniProt P34897)
# assay-overview: Inhibition of His-tagged human recombinant SHMT2 expressed in Escherichia coli BLR(DE3) assessed as reduction in NADPH level using L-serine, THF and NADP+ incubated for 5 mins by SHMT2-MTHFD coupled reaction based fluorescence assay
# experimental-context: read-out: pIC50 (converted)
Decide using IC50 alone. Strictly below 2000 nM: y. Equal to or above 2000 nM: n.

// known answers, use as guide
Cc1cc(/C=C/c2ccc3cc(N(C)C)ccc3[n+]2C)c(C)n1-c1ccccc1: n
COc1ccc(Cc2nccc3cc(OC)c(OC)cc23)cc1OC: n
CNCC[C@H](Oc1cccc2ccccc12)c1cccs1: n

Asked: Would you kindly verify if IC50 of CN(C)c1cc2c(Nc3ccc4c(cnn4Cc4ccccc4)c3)ncnc2cn1 [GW282974X] is strictly less than 2000 nM?
Given back: n

Asked: Okay, and COc1cc(NC(C)CCCN)c2ncccc2c1 (configuration not stated) ?
Given back: y

Asked: Okay, and CCOC(=O)Nc1ccc(NCc2ccc(F)cc2)nc1N ?
Given back: y

----------
# system: Serine hydroxymethyltransferase, mitochondrial (Homo sapiens, UniProt P34897)
# assay-overview: Inhibition of His-tagged human recombinant SHMT2 expressed in Escherichia coli BLR(DE3) assessed as reduction in NADPH level using L-serine, THF and NADP+ incubated for 5 mins by SHMT2-MTHFD coupled reaction based fluorescence assay
# experimental-context: read-out: IC50
pIC50 listing for selected compounds.
Please keep in mind that pIC50 is minus log10 of the molar concentration; only the number is needed.

COc1ccc(OC)c(CNC(=O)Nc2cn(C)c(=O)c3ccccc23)c1: 5.59
COc1ccc(Cl)cc1NC(=O)N1CC2CCCN2c2ccccc21 (stereo not given): 5.70
CN1CCN(CCCNC(=O)c2ccc(N3CCSc4ncccc43)s2)CC1: 5.42
COc1ccc(NC(=O)n2ncc3cc(Cl)ccc32)cc1OC: 5.01
O=C(Nc1cc(F)c2nc(N3CCCC3)ccc2c1)C1CCCCC1: 5.59
COc1ccc(OC)c(Nc2c(-c3cc(C)c(C)cc3C)c(=O)c2=O)c1: 5.00

Asked: Query for Serine hydroxymethyltransferase, mitochondrial (Homo sapiens, UniProt P34897): what pIC50 does the record show for CC(C)Cn1cc(NC(=O)NC2CC2)c2ccccc2c1=O ?
Given back: 5.06

Asked: Okay, and CC(C)Cn1cc(NC(=O)NC(c2cccs2)C(C)C)c2ccccc2c1=O (stereo not given) ?
Given back: 5.39

Asked: Okay, and CCN(CC)CCNC(=O)c1noc2c1CCc1sccc1-2 ?
Given back: 5.38
